Reported % Inhibition @10 µg/ml (n1), ErbB2 phosphorylation in BT474 cells at 48 hours values for a set of binders
Target: human ErbB2, full length, on cells (B300.19/hErbB2 clone #44; MCF7; BT474; SKBR3) (human)
Answer format: number, then unit.

Solved entries (count: 5):
BINDER	READOUT_VALUE
monoclonal antibody 1.20 (antibody, V domains shown) VH: QLQLQESGPGLVKPSETLSLTCTVSGGSISSSNYYWGWIRQPPGKGLEWIGTIYYTGSTYYNPSLKSRVTISVDTSKNQFSLKLSSVTAADTAVYYCARHHWVFDYWGQGTLVTVSS VL: DIQMTQSPSSVSASVGDRVTITCRASQGISSWLAWYQQKPGKAPKLLIYAASSLQSGVPSRFSGSGSGTDFTLTISSLQPEDFATYYCQRTNSFPRTFGQGTKVEIK	21%
monoclonal antibody 1.96 (antibody, V domains shown) VH: EVQLVESGGGLVQPGGSLRLSCAASGFTFSSYWMSWVRQAPGKGLEWVANIKQDGSEKYYVDSVKGRFTISRDNAKNSLYLQMNSLRAEDTAVYYCARWGVFGSGSYYIPFDYWGQGTLVTVSS VL: DIQMTQSPSSLSASVGDRVTITCRASHSITRYINWYQQKPGKAPNLLIYAASSLQSGVPSRFSGSGSGTDFTLTISSPQPEDFATYYCQQSYSSPPITFGQGTRLEIK	37%
monoclonal antibody 1.14.1 (antibody, V domains shown) VH: QLQLQESGPGLVKPSETLSLTCTVSGDSISSFIYYWGWIRQPPGKGLEWIGTIYYSGSTYYNPSLKSRVTISVDTSKNQFSLKLRSVTAADTAVYYCARHHWVFDYWGQGTQVTVSS VL: DIVLTQFPDFQSVTPKEKVTITCRASQVIGSSLHWYQQKPDQSPKLLIKYASQSFSGVPSRFSGSGSGTDFTLTINSLEVEDAATYYCHQSTILPWTFGQGTKVEVK	37%
monoclonal antibody 1.100.1 (antibody, V domains shown) VH: QLQLQESGPGLVKPSETLSLTCTVSGGFISSSSYYWGWIRQPPGKGLEWIGTIYYSGTTYYNSSLKSRVTISVDTSQNQFSLKLSSVTAADTAVYYCARHHWVFDYWGQGTLVTVSS VL: EVVLTQSPDFQSVTPKEKITITCRASQIIGTSLHWYQKKPDQSPKLLIKYASQSFSGVPSRFSGSGSGTEFTLTINSLEAEDTATYYCHQSTNLPWTFGQGTKVEIK	37%
monoclonal antibody 1.18.1 (antibody, V domains shown) VH: QVQLVESGGGVVQPGRSLRLSCAASGFTFSSYGMHWVRQAPGKGLEWVAVIWYDRSNKYYADSVKGRFTISRDNSKNTLYLQMDSLRAEDTAVYYCAGGRSRGAFDYWGQGTLVTVSS VL: DIQMTQSPSSLSASVGDRVTITCRASQGIRNYLAWFQQKPGKAPKSLIYAASSLQSGVPSTFSGSGSGTHFTLTISSLQPEDFASYFCQQYEIYPLTFGGGTKVEIK	24%

QUERY: Report % Inhibition @10 µg/ml (n1), ErbB2 phosphorylation in BT474 cells at 48 hours for monoclonal antibody 1.39 (antibody, V domains shown) VH: QLQLQESGPGLVKPSETLSLTCTVSGGSISSSTYYWGWIRQPPGKGLEWIGTIYYSGSTYYNPSLKSRVTISVDTSKNQFSLKLNSVTAADTAVYYCARHHWVFDYWGQGTLVTVSS VL: EIVLTQSPDFLSVTPKEKVTITCRASQIIGSSLHWYQQKPDQSPKLLIKYASQSFSGVPSRFSGSGSGTDFTLTLNSLEAEDAATYYCHQSTILPWTFGQGTKVEIK please.
RESULT: 37%
